biological target: T1, human-CD40 monomer (human, UniProt P25942 21-193, limits assumed); test: SPR 2 pt screen, Ab on protein A
T1 construct: also called hCD40-monomer; human-CD40-monomer protein
T1 sequence (P25942 21-193 limits assumed): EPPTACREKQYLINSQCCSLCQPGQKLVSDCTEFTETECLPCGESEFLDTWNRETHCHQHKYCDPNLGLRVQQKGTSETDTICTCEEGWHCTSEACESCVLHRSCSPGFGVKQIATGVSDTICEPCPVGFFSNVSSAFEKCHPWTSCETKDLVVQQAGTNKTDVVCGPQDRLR
The following binders are shown together with reported Kd values.
observed.property: Kd (nM)

| binder | result.value |
| --- | --- |
| humanized Y1238 hz35 (hz-HC7 / hz-LC5), IgG1.3f (antibody, V domains shown, IgG1.3f heavy constant, common CL; expression supernatant; also called Sup 35) VH: QVQLVQSGAEVVKPGASVKVSCKASGYAFTNYLIEWVRQRPGQGLEWMGVINPGSGGTNYNEKFKGRVTMTADKSSSTAYMQLSRLRSDDTAVYFCARSQLGRRFDYWGQGTLVTVSS VL: DIQMTQSPSSLSASVGDRVTITCKASQDVRTGVAWYQQKPGQAPKLLIYSASYRNTGVPSRFSGSRSGTDFTFTISSLQPEDIAVYYCQQHYSPPYTFGGGTKVEIK | 9.2 |
| humanized Y1238 hz48 (hz-HC10 / hz-LC3), IgG1.3f (antibody, V domains shown, IgG1.3f heavy constant, common CL; expression supernatant; also called Sup 48) VH: QVQLVQSGAEVKKPGASVKVSCKASGYAFTNYLIEWVRQRPGQGLEWMGVINPGSGGTNYNEKFKGRVTMTRDKSISTAYMELSRLRSDDTAVYYCARSQLGRRFDYWGQGTLVTVSS VL: DIQMTQSPSSLSASVGDRVTITCKASQDVRTGVAWYQQKPGQSPKLLIYSASYRNTGVPSRFSGSRSGTDFTFTISSLQPEDIAVYYCQQHYSPPYTFGGGTKVEIK | 14 |
| humanized Y1238 hz22 (hz-HC5 / hz-LC2), IgG1.3f (antibody, V domains shown, IgG1.3f heavy constant, common CL; expression supernatant; also called Sup 22) VH: QVQLVQSGAEVKKPGASVKVSCKASGYAFTNYLIEWVRQRPGQGLEWMGVINPGSGGTNYNEKFKGRVTMTADKSISTAYMELSRLRSDDTAVYYCARSQLGRRFDYWGQGTLVTVSS VL: DIQMTQSPSSLSASVGDRVTITCKASQDVRTGVAWYQQKPGKAPKLLIYSASYRNTGVPSRFSGSRSGTDFTFTISSLQPEDIATYYCQQHYSPPYTFGGGTKVEIK | 2.9 |
| humanized Y1238 hz36 (hz-HC8 / hz-LC1), IgG1.3f (antibody, V domains shown, IgG1.3f heavy constant, common CL; expression supernatant; also called Sup 36) VH: QVQLVQSGAEVVKPGASVKVSCKASGYAFTNYLIEWVRQRPGQGLEWMGVINPGSGGTNYNEKFKGRVTLTADKSSSTAYMQLSRLRSDDTAVYFCARSQLGRRFDYWGQGTLVTVSS VL: DIQMTQSPSSLSASVGDRVTITCKASQDVRTGVAWYQQKPGKAPKLLIYSASYRNTGVPSRFSGSGSGTDFTFTISSLQPEDIATYYCQQHYSPPYTFGGGTKVEIK | 3.7 |
| humanized Y1238 hz18 (hz-HC4 / hz-LC3), IgG1.3f (antibody, V domains shown, IgG1.3f heavy constant, common CL; expression supernatant; also called Sup 18) VH: QVQLVQSGAEVKKPGASVKVSCKASGYAFTNYLIEWVRQAPGQGLEWMGVINPGSGGTNYNEKFKGRVTMTADKSISTAYMELSRLRSDDTAVYYCARSQLGRRFDYWGQGTLVTVSS VL: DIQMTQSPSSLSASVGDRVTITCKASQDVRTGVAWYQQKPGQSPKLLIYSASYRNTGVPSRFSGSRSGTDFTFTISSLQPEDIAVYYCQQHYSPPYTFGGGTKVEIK | 7.6 |
